test system: Escherichia coli TOP10; test: shrunken log2 fold change of peptide-encoding DNA abundance (4.5 h post-induction vs induction); higher = less antimicrobial activity (less host growth inhibition); details: time post-induction: 4.5 h; library: site-saturation at positions 5, 18, 19, 20;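 further: peptides expressed intracellularly from a pBAD plasmid library in pooled LB shake-flask culture, induced with 0.3% L-arabinose, DNA abundance read by NGS, three biological replicates, DESeq2 with apeglm shrinkage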
parameter: shrunken log2 fold change
Respond using a number only.

Before answering, review these 2 worked examples.
| sequence_code | system_name | shrunken log2 fold change |
| --- | --- | --- |
| RRIRERPPRLPRPRPRPKIEPRP | Escherichia coli TOP10 | -0.151 |
| RRIRQRPPRLPRPRPRPLRTPRP | Escherichia coli TOP10 | 0.691 |

IN: Provide the documented shrunken log2 fold change with Escherichia coli TOP10 as the system for RRIRRRPPRLPRPRPRPWQAPRP
OUT: 0.0707

IN: Provide the documented shrunken log2 fold change with Escherichia coli TOP10 as the system for RRIRKRPPRLPRPRPRPHFGPRP
OUT: -0.067

IN: Provide the documented shrunken log2 fold change with Escherichia coli TOP10 as the system for RRIRYRPPRLPRPRPRPCANPRP
OUT: -0.0013

IN: Provide the documented shrunken log2 fold change with Escherichia coli TOP10 as the system for RRIRDRPPRLPRPRPRPNIVPRP
OUT: -0.0381

IN: Provide the documented shrunken log2 fold change with Escherichia coli TOP10 as the system for RRIRSRPPRLPRPRPRPIHNPRP
OUT: -0.415

IN: Provide the documented shrunken log2 fold change with Escherichia coli TOP10 as the system for RRIRVRPPRLPRPRPRPFACPRP
OUT: -0.395

IN: Provide the documented shrunken log2 fold change with Escherichia coli TOP10 as the system for RRIRNRPPRLPRPRPRPFGPPRP
OUT: -0.406

IN: Provide the documented shrunken log2 fold change with Escherichia coli TOP10 as the system for RRIRHRPPRLPRPRPRPCRAPRP
OUT: 0.0188

IN: Provide the documented shrunken log2 fold change with Escherichia coli TOP10 as the system for RRIRIRPPRLPRPRPRPPSQPRP
OUT: 0.258

IN: Provide the documented shrunken log2 fold change with Escherichia coli TOP10 as the system for RRIRWRPPRLPRPRPRPCVKPRP
OUT: -0.0416
